Molecular target: T1, human arginase II (aa23-354, 38.3kD) (human, UniProt P78540 23-354, RED-tris-NTA dye labeled in the MST assay)
T1 construct: human arginase II, aa23-354, 38.3kD, fused to a His6-tag at the N-terminal; also called hargII; source: bought: USBiological Life Science, Salem, USA; not shown: His6, N-terminal, kept
T1 sequence (looked up): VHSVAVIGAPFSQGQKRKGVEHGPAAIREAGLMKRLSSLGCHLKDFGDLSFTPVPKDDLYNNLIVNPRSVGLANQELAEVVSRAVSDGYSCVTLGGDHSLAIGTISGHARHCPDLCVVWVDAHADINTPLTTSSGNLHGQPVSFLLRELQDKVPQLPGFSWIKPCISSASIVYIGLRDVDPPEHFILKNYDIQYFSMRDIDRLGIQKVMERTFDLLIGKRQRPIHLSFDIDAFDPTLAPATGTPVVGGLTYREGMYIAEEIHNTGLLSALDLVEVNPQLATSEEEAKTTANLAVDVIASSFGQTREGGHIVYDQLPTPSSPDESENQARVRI
Test: MST; Monolith NT.115; His6-tagged arginase labeled with RED-tris-NTA at 50 nM, peptide REGNH titrated in 1:1 dilution; 25 mM Tris-HCl pH 7.5, 125 mM NaCl, 1% glycerol, 1 mM BME, 0.05% Tween-20; 10 min incubation at room temperature; triplicate
Conditions: both partners purified
reported property: Kd (µM)
Number only, in µM; omit the unit.

Challenge: Give the measured Kd of REGNH (residues 308-312 of human arginase I, part of the S-shape motif of the C-terminal; Nothing is said of modified ends; also called peptide analogue; REGNH C-terminus analogue peptide; source: synthetic peptide; bought: Biomatik and TopPeptides, Shanghai) [synthetic peptide REGNH] .
Response given: 196
